- experimental target: human α2A-adrenergic receptor (α2AAR) (Homo sapiens, UniProt P08913)
- Construct: expressed in transfected cells; host or cells: HEK293T (transient)
- test details: BRET between α2AAR and tagged G protein subunits (Gβ1, Gγ2, Gαi1-91Rluc, Gαi1-122Rluc) in living HEK293T cells
- Assay type: cell-based
measurement type: change in BRET2, Gαi1-91Rluc / α2AAR-GFP2

Cc1cccc([C@H](C)c2cnc[nH]2)c1C
partial increase in BRET
Clc1cccc(Cl)c1N=C1NCCN1
partial increase in BRET

* * *

- experimental target: human α2A-adrenergic receptor (α2AAR) (Homo sapiens)
- Construct: expressed in transfected cells; host or cells: HEK293T (transient)
- Sequence (P08913 1-465): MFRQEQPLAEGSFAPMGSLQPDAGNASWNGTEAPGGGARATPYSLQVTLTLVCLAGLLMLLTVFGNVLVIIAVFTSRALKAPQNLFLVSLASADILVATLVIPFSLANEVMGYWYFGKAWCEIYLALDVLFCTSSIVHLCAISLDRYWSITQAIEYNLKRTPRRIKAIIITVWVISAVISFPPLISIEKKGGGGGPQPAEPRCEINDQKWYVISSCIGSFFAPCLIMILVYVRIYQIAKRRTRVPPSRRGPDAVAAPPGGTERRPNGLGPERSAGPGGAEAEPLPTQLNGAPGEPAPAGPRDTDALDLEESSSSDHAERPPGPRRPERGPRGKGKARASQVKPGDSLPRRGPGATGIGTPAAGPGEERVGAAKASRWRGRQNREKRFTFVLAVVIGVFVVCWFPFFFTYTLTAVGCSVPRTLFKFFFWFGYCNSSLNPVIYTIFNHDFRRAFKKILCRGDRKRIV
- test details: BRET between α2AAR and tagged G protein subunits (Gβ1, Gγ2, Gαi1-91Rluc, Gαi1-122Rluc) in living HEK293T cells
- Assay type: cell-based
measurement type: change in BRET2, α2AAR-Rluc / GFP10-Gβ1

Clc1cccc(Cl)c1N=C1NCCN1
partial increase in BRET
Cc1cccc([C@H](C)c2cnc[nH]2)c1C
partial increase in BRET
